biological target: full-length beta-Catenin (Uniprot ID P35222) (Homo sapiens (Human)) (UniProt P35222); assay: fluorescence polarization competition; full-length beta-catenin with 5FAM-TCF4(10-53) probe as competitor
Starred links: 1 amine or outer side, 2 acyl side, 3 side chain; linkers in the order of their positions; H or OH if unused. Positions of bridges follow the written chain, without caps; N, C: chain ends. Non-standard residues stand in square brackets, D forms with d. Primed or numbered codes have the meaning given here. B5(4) = 2,2-bis(4-pentenyl)glycine = 2-amino-2-(pent-4-en-1-yl)hept-6-enoic acid (stitching residue), C=CCCCC(CCCC=C)(N[*:1])C(=O)[*:2]; B5(5) = 2,2-bis(4-pentenyl)glycine, 2-amino-2-(pent-4-en-1-yl)hept-6-enoic acid (stitching residue), C=CCCCC(CCCC=C)(N[*:1])C(=O)[*:2]; TfeGA(3) = (S)-2-amino-3-((carboxymethyl)(2,2,2-trifluoroethyl)amino)prop[anoic acid], O=C([C@H](CN(CC(=O)[*:3])CC(F)(F)F)N[*:1])[*:2]; PyrS2 = (S)-3-amino-1-((pent-4-en-1-yloxy)carbonyl)pyrrolidine-3-carboxylic acid, C=CCCCOC(=O)N1CC[C@@](N[*:1])(C(=O)[*:2])C1; EtGA = (S)-2-amino-3-((carboxymethyl)(ethyl)amino)propanoic acid, CCN(CC(=O)[*:3])C[C@H](N[*:1])C(=O)[*:2]; B5 = 2-amino-2-(pent-4-en-1-yl)hept-6-enoic acid, C=CCCCC(CCCC=C)(N[*:1])C(=O)[*:2]; Phe(2-CF3) = N[C@@H](Cc1ccccc1C(F)(F)F)C(=O)O; Ala(2-furyl) = N[C@@H](Cc1ccco1)C(=O)O; Bta = N[C@@H](Cc1csc2ccccc12)C(=O)O; αAllylPro = C=CC[C@@]1(C(=O)O)CCCN1; tBuAla = CC(C)(C)C[C@H](N)C(=O)O; 2Thi = N[C@@H](Cc1cccs1)C(=O)O; 3Thi = N[C@@H](Cc1ccsc1)C(=O)O; Cha = N[C@@H](CC1CCCCC1)C(=O)O; S8 = C=CCCCCCC[C@](C)(N)C(=O)O
parameter: IC50 (nM)

binder="Ac-[αAllylPro]DA[B5(4)]DEAAFQ[S8]F[Bta][Ala(2-furyl)]-NH2 (staple 1-4, 4-11) [I-490]" parameter=IC50 value=88
binder="Ac-[αAllylPro]D[tBuAla][B5(4)]DDAAF[Phe(2-CF3)][PyrS2][3Thi][Bta]Q-NH2 (staple 1-4, 4-11) [I-1363]" parameter=IC50 value=9
binder="Ac-[αAllylPro]DA[B5(4)]D[TfeGA(3)]AAFQ[S8]F[Bta]H-NH2 (staple 1-4, 4-11) [I-499]" parameter=IC50 value=123
binder="Ac-[αAllylPro]DI[B5(5)]D[EtGA]AAFQ[S8]F[Bta]Q-NH2 (staple 1-4, 4-11; not fully specified; printed as Ac-PL3-Asp-Ile-B5-Asp-EtGa-Ala-Ala-Phe-Gln-S8-Phe-BztA-Gln-NH2) [I-608]" parameter=IC50 value=211
binder="Ac-[αAllylPro]D[Cha][B5]DEAAFN[S8]F[Bta]H-NH2 (staple 1-4, 4-11) [I-615]" parameter=IC50 value=50
binder="Ac-[αAllylPro]DI[B5(4)]DEAA[2Thi]Q[S8]F[Bta]Q-NH2 (staple 1-4, 4-11) [I-485]" parameter=IC50 value=34
